assayed_target: UniProtKB P20813
Sequence (P20813 whole entry): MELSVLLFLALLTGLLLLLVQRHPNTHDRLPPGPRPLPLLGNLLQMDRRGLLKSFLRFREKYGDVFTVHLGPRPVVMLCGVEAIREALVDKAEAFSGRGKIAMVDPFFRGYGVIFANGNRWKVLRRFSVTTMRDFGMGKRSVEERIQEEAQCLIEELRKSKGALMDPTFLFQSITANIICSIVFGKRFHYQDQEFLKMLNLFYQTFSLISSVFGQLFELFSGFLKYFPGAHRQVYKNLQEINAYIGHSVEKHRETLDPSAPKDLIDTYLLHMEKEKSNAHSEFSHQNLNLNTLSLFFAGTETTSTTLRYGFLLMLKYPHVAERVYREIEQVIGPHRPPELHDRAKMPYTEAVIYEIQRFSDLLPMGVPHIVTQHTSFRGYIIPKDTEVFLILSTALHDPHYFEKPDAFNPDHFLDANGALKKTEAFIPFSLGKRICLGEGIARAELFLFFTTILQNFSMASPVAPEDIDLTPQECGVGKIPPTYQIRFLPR
pIC50: −log10 of the molar value.
experimental_readout: pIC50

CCN1C(=O)CN(c2ccc(Cc3cc([C@@H]4O[C@H](CO)[C@@H](O)[C@H](O)[C@H]4O)ccc3Cl)cc2)C1=O    < 4.96

Here's the next entry for you.
INPUT: Provide pIC50 value for the following compound: `Cc1cc2nn(Cc3cc([C@@H]4O[C@H](CO)[C@@H](O)[C@H](O)[C@H]4O)ccc3Cl)c(=O)n2cc1Cl`
OUTPUT: < 4.96

###

measurement_notes: Oral bioavailability in rat
Format: ADME, organism-based
condition_summary: in vivo
experimental_readout: bioavailability (%)
Note: unit % is implicit; provide only the numeric part.

INPUT: For the molecule `CCN1C(=O)CN(c2ccc(Cc3cc([C@@H]4O[C@H](CO)[C@@H](O)[C@H](O)[C@H]4O)ccc3Cl)cc2)C1=O` , report bioavailability.
OUTPUT: 4

###

Recorded pIC50, one value per entry.
assayed_target: Sodium/glucose cotransporter 1 (Homo sapiens, UniProt P13866)
Sequence (P13866 whole entry): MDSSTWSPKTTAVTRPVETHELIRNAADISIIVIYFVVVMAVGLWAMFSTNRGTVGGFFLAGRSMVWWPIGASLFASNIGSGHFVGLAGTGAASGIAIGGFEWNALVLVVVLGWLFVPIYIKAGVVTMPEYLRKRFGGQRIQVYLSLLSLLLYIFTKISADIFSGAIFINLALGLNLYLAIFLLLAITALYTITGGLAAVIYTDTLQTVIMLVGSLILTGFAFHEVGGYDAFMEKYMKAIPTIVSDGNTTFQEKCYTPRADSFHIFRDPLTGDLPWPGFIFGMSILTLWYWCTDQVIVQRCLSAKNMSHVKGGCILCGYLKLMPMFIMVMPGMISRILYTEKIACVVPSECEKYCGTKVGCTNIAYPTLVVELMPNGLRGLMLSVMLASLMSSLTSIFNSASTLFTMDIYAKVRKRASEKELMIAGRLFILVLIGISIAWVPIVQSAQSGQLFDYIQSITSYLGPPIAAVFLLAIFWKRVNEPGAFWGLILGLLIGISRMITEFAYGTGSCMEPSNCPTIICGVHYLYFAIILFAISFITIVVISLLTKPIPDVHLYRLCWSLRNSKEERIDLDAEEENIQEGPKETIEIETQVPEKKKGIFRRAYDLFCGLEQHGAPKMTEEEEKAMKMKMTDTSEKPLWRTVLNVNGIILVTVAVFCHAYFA
measurement_notes: Inhibition of human SGLT1 expressed in CHOK1 cells assessed as inhibition of [14C]-AMG uptake after 3 hrs by microbeta scintillation counting analysis
pIC50: −log10 of the molar value.

Please review the entries below; each comes with its answer.
CN1C(=O)CN(c2ccc(Cc3cc([C@@H]4O[C@H](CO)[C@@H](O)[C@H](O)[C@H]4O)ccc3Cl)cc2)C1=O    4.05
O=c1n(Cc2cc([C@@H]3O[C@H](CO)[C@@H](O)[C@H](O)[C@H]3O)ccc2Cl)nc2c(Cl)cccn12    < 4.05
CN1C(=O)N(c2ccc(Cc3cc([C@@H]4O[C@H](CO)[C@@H](O)[C@H](O)[C@H]4O)ccc3Cl)cc2)C(C)(C)C1=O    4.08
Cc1ccn2c(=O)n(Cc3cc([C@@H]4O[C@H](CO)[C@@H](O)[C@H](O)[C@H]4O)ccc3Cl)nc2c1    < 4.05
O=c1n(Cc2cc([C@@H]3O[C@H](CO)[C@@H](O)[C@H](O)[C@H]3O)ccc2Cl)nc2cc(OCC(F)(F)F)ccn12    < 4.05

INPUT: Read the entry `O=c1n(Cc2cc([C@@H]3O[C@H](CO)[C@@H](O)[C@H](O)[C@H]3O)ccc2Cl)nc2ccc(Br)cn12` and write its reported pIC50.
OUTPUT: < 4.05
